target: human CD38 antigen (recombinant human CD38 protein) (human, UniProt P28907 43-300, limits assumed); test: SPR, IgG captured on anti-human Fc, human CD38 in solution;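 further: humanized IgG captured on an amine-coupled anti-human Fc HC30M chip, with human CD38 injected as a dilution series from 1000 nM downward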
Answer each item with its documented Kd.
Answer in µM, number only, no unit symbol.

### Prompt Fill blank: measured Kd of the binder L3H1 (antibody, V domains shown, Humanized AT13/5 IgG, VL3 + VH1) VH: QVQLQESGPGLVKPSETLSLTCTVSGFSLTSYGVHWIRQPPGKGLEWIGVMWRGGSTDYNPSLKSRVTISKDNSKRQFSLKLSSVTAADTAVYYCAKSMITTGFVMDSWGQGTLVTVSS VL: DIQMTQSPSSLSASVGDRVTITCRASEDIYNRLTWYQQKPGKAPKLLLSGATSLETGVPSRFSGSGSGTDYTLTISSLQPEDFATYYCQQYWSNPYTFGGGTKVEIK is ____.
### Response 0.65

### Prompt Fill blank: measured Kd of the binder Chimeric (chimeric AT13/5 anti-CD38 IgG) (antibody, V domains shown, IgG format, captured on anti-human Fc; chimeric VL + chimeric VH (murine AT13/5 variable regions)) VH: QVQLKQSGPGLVHPSQSLSITCTVSGFSLTSYGVHWVRQSPGKGLEWLGVMWRGGSTDYNAAFMSRLNITKDNSKRQVFFKMNSLQADDTAIYYCAKSMITTGFVMDSWGQGTSVTVSS VL: DIQLTQSPSSFSVSLGDRVTITCKASEDIYNRLTWYQQKPGNAPRLLISGATSLETGVPSRFSGSGSGKDYTLSITSLQTEDVATYYCQQYWSNPYTFGGGTKLEIR is ____.
### Response 0.0028

### Prompt Fill blank: measured Kd of the binder L4H5 (antibody, V domains shown, Humanized AT13/5 IgG, VL4 + VH5) VH: QVQLQESGPGLVKPSETLSLTCTVSGFSLTSYGVHWIRQPPGKGLEWIGVMWRGGSTDYNPSLKSRVTISVDTSKNQFSFKLSSVTAADTAIYYCAKSMITTGFVMDSWGQGTLVTVSS VL: DIQMTQSPSSLSASVGDRVTITCRASEDIYNRLTWYQQKPGKAPKLLLYGATSLETGVPSRFSGSGSGKDYTLTISSLQPEDFATYYCQQYWSNPYTFGGGTKVEIK is ____.
### Response 0.32
